assay: Pharmacokinetic analysis of clobazam and stiripentol after a single ip injection; assay type: in vivo, Wild‐type and Scn1a +/− mice; conditions: mouse, plasma, ip, 100 mg/kg
Measured Property: half-life (h)

[[record]]
compound = "CC(C)(C)C(O)/C=C/c1ccc2c(c1)OCO2 (stereo not shown)"
measured_property = "half-life"
units_of_measure = "h"
numeric_value = 2.82


----------
system: Dravet syndrome patients; assay: Retrospective chart review of anticonvulsant responses in Dravet syndrome; assay type: in vivo, human; conditions: Dravet syndrome cohort
Measured Patients with significant worsening of seizures (patients/patients trialed) by item
Measured Property: Patients with significant worsening of seizures (patients/patients trialed)

[[record]]
compound = "NC(=O)N1c2ccccc2CC(=O)c2ccccc21 [oxcarbazepine]"
result = "28/50"

[[record]]
compound = "NC(=O)N1c2ccccc2C=Cc2ccccc21 [Carbamazepine]"
result = "16/32"

[[record]]
compound = "Nc1nnc(-c2cccc(Cl)c2Cl)c(N)n1"
result = "25/50"

[[record]]
compound = "O=C1NC(=O)C(c2ccccc2)(c2ccccc2)N1"
result = "15/31"


----------
experiment: Pharmacokinetic analysis of clobazam and stiripentol after a single ip injection; type: in vivo, Wild‐type and Scn1a +/− mice; conditions: mouse, plasma, ip, 10 mg/kg
Measured Property: half-life (min)

[[record]]
smiles_string = "CN1C(=O)CC(=O)N(c2ccccc2)c2cc(Cl)ccc21"
measured_property = "half-life"
units_of_measure = "min"
numeric_value = 38


----------
experiment: Pharmacokinetic analysis of clobazam and stiripentol after a single ip injection; format: in vivo, Wild‐type and Scn1a +/− mice; details: mouse, plasma, ip, 10 mg/kg
Measured Property: AUC(0-inf) (ng·h/mL)

[[record]]
compound = "CN1C(=O)CC(=O)N(c2ccccc2)c2cc(Cl)ccc21 [Clobazam]"
measured_property = "AUC(0-inf)"
units_of_measure = "ng·h/mL"
numeric_value = 2580


----------
assay: Pharmacokinetic analysis of clobazam and stiripentol after a single ip injection; type: in vivo, Wild‐type and Scn1a +/− mice; details: mouse, plasma, ip, 100 mg/kg
Measured Property: AUC(0-inf)

[[record]]
molecule = "CC(C)(C)C(O)/C=C/c1ccc2c(c1)OCO2 (stereo not shown)"
result = "210 µg·h/mL"

